Just for reference, ChEMBL document CHEMBL3879908 is where these values come from.

- Experimental target: Chemerin-like receptor 1 (Homo sapiens)
- Sequence (Q99788 whole entry): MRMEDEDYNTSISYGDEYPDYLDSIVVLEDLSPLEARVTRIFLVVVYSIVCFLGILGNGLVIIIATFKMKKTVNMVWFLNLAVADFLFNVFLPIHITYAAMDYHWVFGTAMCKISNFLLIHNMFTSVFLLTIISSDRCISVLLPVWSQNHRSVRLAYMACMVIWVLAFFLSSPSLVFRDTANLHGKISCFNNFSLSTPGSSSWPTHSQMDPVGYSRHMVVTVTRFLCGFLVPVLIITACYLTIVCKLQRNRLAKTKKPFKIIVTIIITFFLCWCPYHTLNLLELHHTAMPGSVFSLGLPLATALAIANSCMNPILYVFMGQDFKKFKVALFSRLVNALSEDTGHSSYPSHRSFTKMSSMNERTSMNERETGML
- Method notes: Displacement of [125I]-chemerin from ChemR23 (unknown origin) transfected in mouse BaF3 cells after 3 hrs by scintillation counting method
Reported IC50 is given for each of the following compounds.

Compound: COc1cc(NC(=O)C2CC(=O)N(c3c(C)cccc3C)C2)cc(C(F)(F)F)c1 (stereo not drawn)
IC50: 30 to 300 nM
--
Compound: Cc1cccc(C)c1N1C[C@@](CN(C)C)(C(=O)Nc2cc(C(F)(F)F)cc(C(F)(F)F)c2)[C@H](C)C1=O
IC50: ≤ 30 nM
--
Compound: Cc1cccc(C)c1N1CC(CN2CCCC2)(C(=O)Nc2cc(C3CC3)cc(C(F)(F)F)c2)CC1=O (stereo not drawn)
IC50: ≤ 30 nM
--
Compound: Cc1cccc(C)c1N1C[C@]2(C(=O)Nc3cc(C(F)(F)F)cc(C(F)(F)F)c3)OCC[C@@H]2C1=O
IC50: 30 to 300 nM
--
Compound: CCC1(C(=O)Nc2cc(C(F)(F)F)cc(C(F)(F)F)c2)CC(=O)N(c2c(C)cccc2C)C1 (stereo not drawn)
IC50: ≤ 30 nM
--
Compound: Cc1cccc(C)c1N1C[C@](C(=O)Nc2cc(C(F)(F)F)cc(C(F)(F)F)c2)(C2CCOCC2)[C@H](C)C1=O
IC50: ≤ 30 nM
--
Compound: CCc1cccc(C)c1N1CC(C(=O)Nc2cc(C(F)(F)F)cc(C(F)(F)F)c2)CC1=O (stereo not drawn)
IC50: ≤ 30 nM
--
Compound: CC[C@@]1(C(=O)Nc2cc(C)cc(C(F)(F)F)c2)CN(c2c(C)cccc2C)C(=O)[C@H]1C
IC50: ≤ 30 nM
